biological target: HLA-B*15:17; assay: IEDB peptide-MHC binding, purified MHC/competitive/fluorescence; filed as Kd, often an IC50 or EC50 that approximates it; bounds were set here for any values at or beyond the usual limits of such assays; settings: source organism: Entamoeba histolytica HM-1:IMSS
pKd: −log10 of the molar value.
endpoint: pKd

Input line: Fill blank: measured pKd of the sequence EVIRATYPS is ____.
Output line: ≤ 4.70

* * *

molecular target: HLA-A*68:01; test: IEDB peptide-MHC binding, purified MHC/competitive/radioactivity; filed as Kd, often an IC50 or EC50 that approximates it; bounds were set here for any values at or beyond the usual limits of such assays; settings: source organism: Vaccinia virus Copenhagen
endpoint: Kd

Input line: Fill blank: measured Kd of the sequence LMDSIFVST is ____.
Output line: ≥ 77.7 µM

* * *

biological target: HLA-A*02:01; experiment: IEDB peptide-MHC binding, purified MHC/competitive/fluorescence; bounds were set here for any values at or beyond the usual limits of such assays; settings: source organism: Zaire ebolavirus
endpoint: IC50

PFARLLNLS    ≥ 309 µM
MKDEPVVFS    ≥ 420 µM
EGHGFRFEV    28.1 µM

Input line: Find IC50 (HLA-A*02:01) for the entry MVIFRLMRT
Output line: 0.478 µM

Input line: Find IC50 (HLA-A*02:01) for the entry GLIQYPTAW
Output line: 3.1 µM

Input line: Find IC50 (HLA-A*02:01) for the entry MRTNFLIKF
Output line: ≥ 673 µM

Input line: Find IC50 (HLA-A*02:01) for the entry VIFRLMRTN
Output line: 42.7 µM

Input line: Find IC50 (HLA-A*02:01) for the entry NNLEEICQL
Output line: ≥ 225 µM

* * *

target: HLA-A*02:01; assay: IEDB peptide-MHC binding, purified MHC/competitive/radioactivity; filed as Kd, often an IC50 or EC50 that approximates it; bounds were set here for any values at or beyond the usual limits of such assays; conditions: source organism: Trypanosoma cruzi
endpoint: pKd
# log scale: pKd equals minus log10 of the concentration in mol/L

Input line: Find pKd (HLA-A*02:01) for the entry LVGLWGAAAL
Output line: 6.16

* * *

target: HLA-A*26:01; assay: IEDB peptide-MHC binding, purified MHC/competitive/fluorescence; filed as Kd, often an IC50 or EC50 that approximates it; bounds were set here for any values at or beyond the usual limits of such assays; settings: source organism: Yersinia pestis Nepal516
endpoint: Kd (nM)
Entry rule: numbers only, all in nM.

Input line: Fill blank: measured Kd of the sequence TTRGETLFY is ____.
Output line: 34.1

* * *

target: HLA-A*26:02; assay: IEDB peptide-MHC binding, purified MHC/direct/fluorescence; filed as Kd, often an IC50 or EC50 that approximates it; bounds were set here for any values at or beyond the usual limits of such assays; details: source organism: Influenza A virus(A/swine/Shandong/fNY/2003(H9N2))
endpoint: Kd (µM)
Entry rule: numbers only, all in µM.

Input line: Fill blank: measured Kd of the sequence TTVDHMAII is ____.
Output line: 0.012

* * *

Kd reference
target: HLA-A*68:02; experiment: IEDB peptide-MHC binding, purified MHC/competitive/radioactivity; filed as Kd, often an IC50 or EC50 that approximates it; bounds were set here for any values at or beyond the usual limits of such assays; details: source organism: Dengue virus 4 Philippines/H241/1956
Write the quantity with the unit trailing the number.

As a guide, the following entries are already answered.
EVLTLATGPV    23.5 nM
LASMAICSAV    26.2 nM
ETFSMGLLCL    6.59 nM

Input line: Fill blank: measured Kd of the sequence ETALMVIGM is ____.
Output line: 10.5 nM

These data points were gathered from the Immune Epitope Database (IEDB).
